# Tested on: HCV replicon I389luc-ubi-neo/NS3-3′/ET in ET (Huh-lucubineo-ET) cells
# Experimental Details: Replicon assay (Biological Example 2), luciferase readout
# Format: cell-based
# Settings: Hepatitis C virus; ET cells, luciferase activity 48 hours after compound
pIC50: −log10 of the molar value.
pIC50 by entry:
Measured Attribute: pIC50

- CC1CCC(C)N1c1ccc(S(=O)(=O)N2CC(=O)N(c3cc(-c4ccccc4)sc3C(=O)O)C(C3CCCCC3)C2)cn1 (stereo not shown) [Compound 92]: ≥ 7.00
- O=C1CC(=O)N(c2cc(-c3ccccc3)sc2C(=O)O)C(C2CCCCC2)C1 (stereo not shown) [Compound 9]: ≤ 5.30
- O=C(O)c1sc(-c2ccccc2)cc1N1C(=O)CN(S(=O)(=O)c2cccc3ccccc23)CC1C1CCCCC1 (stereo not shown) [Compound 110]: ≤ 5.30
- Cn1ccc(S(=O)(=O)N2CC(=O)N(c3cc(-c4ccc(Cl)cc4)sc3C(=O)O)[C@H](C3CCCCC3)C2)n1 [Compound 284]: ≥ 7.00
- COc1ccc(S(=O)(=O)N2CC(=O)N(c3cc(C#CC(C)(C)C)sc3C(=O)O)[C@H](C3CCCCC3)C2)cc1F [Compound 246]: ≥ 7.00
- O=C(O)c1sc(-c2ccccc2)cc1N1C(=O)CN(S(=O)(=O)c2ccc(N3CC[C@H](F)C3)nc2)CC1C1CCCCC1 (stereo partly shown) [Compound 121]: ≥ 7.00
- CCn1cc(S(=O)(=O)N2CC(=O)N(c3cc(-c4ccc(C)cc4)sc3C(=O)O)[C@H](C3CCCCC3)C2)cn1 [Compound 296]: ≥ 7.00
